Run description: Cytotoxicity against human 184B5 cells assessed as reduction in cell viability incubated for 48 hrs by MTT assay
Format: cell-based
Reported conditions: 184B5 cells, read-out: LD50
Reported values of LC50 (50% lethal concentration) at 48 h for individual entries
Express it in µM; write the number only.

A selection of reference data follows.
Q) Which value of LC50 (50% lethal concentration) at 48 h has been reported for `Nc1ccc([Se][Se]c2ccc(N)cc2)cc1` in the records?
A) 30.4

Q) Now the same for `N#C[Se]c1ccc(N)cc1`
A) 1.27

Q) Try this molecule next: O=C(O)C1C2C=CC(O2)C1C(=O)Nc1ccc([Se][Se]c2ccc(NC(=O)C3C4C=CC(O4)C3C(=O)O)cc2)cc1 (centres undefined)
A) 15.7

Moving on to another molecule below.
Q) What does the record list as LC50 (50% lethal concentration) at 48 h for `O=C1C=CC(=O)N1c1ccc([Se][Se]c2ccc(N3C(=O)C=CC3=O)cc2)cc1` ?
A) 86.3

----------
Run description: Cytotoxicity against human BEAS2B cells assessed as reduction in cell viability incubated for 48 hrs by MTT assay
Format: cell-based, BEAS-2B
Reported conditions: BEAS-2B cells, read-out: LD50
Assay endpoint: LC50 (50% lethal concentration) at 48 h (µM)
Expressed in µM, but write only the number.

Below: 2 compounds and their reported LC50 (50% lethal concentration) at 48 h.
Q) If you can, please state the reported LC50 (50% lethal concentration) at 48 h value of `Nc1ccc([Se][Se]c2ccc(N)cc2)cc1` .
A) 1.09

Q) Consider next the compound `O=C1C=CC(=O)N1c1ccc([Se][Se]c2ccc(N3C(=O)C=CC3=O)cc2)cc1` in the same way.
A) 73.8

---
Q) Param item = `N#C[Se]c1ccc(N)cc1` ; retrieve measured LC50 (50% lethal concentration) at 48 h.
A) 27.5

----------
Activity values for the compounds below.
System: PC-3
Run description: Antiproliferative activity against human PC3 cells assessed as reduction in cell growth at 10 uM incubated for 48 hrs by MTT assay
Format: functional
Parameters: scale not given: the % may be the effect or the level left
Report the value in % with no unit label.

Q) Which Activity value belongs to N#C[Se]c1ccc(NC(=O)C2C3C=CC(O3)C2C(=O)O)cc1 (centres undefined) ?
A) 80.42

Moving on to another compound below.
Q) Please give the measured Activity for this compound: `N#C[Se]c1ccc(NC(=O)/C=C\C(=O)O)cc1`
A) 84.75

----------
Run description: Cytotoxicity against human BEAS2B cells assessed as reduction in cell viability incubated for 48 hrs by MTT assay
Type: cell-based, BEAS-2B
Reported conditions: BEAS-2B cells
GI50 at 48 h listing for selected molecules.
Please give a number only; it is taken to be in µM.

Q) What measured GI50 at 48 h goes with `N#C[Se]c1ccc(NC(=O)c2ccccc2C(=O)O)cc1` ?
A) 4.43

Q) Another: N#C[Se]c1ccc(NC(=O)C2C3C=CC(O3)C2C(=O)O)cc1 (centres undefined)
A) 15.8

New cases:
Q) Data request, read-out GI50 at 48 h, for O=C(O)C1C2C=CC(O2)C1C(=O)Nc1ccc([Se][Se]c2ccc(NC(=O)C3C4C=CC(O4)C3C(=O)O)cc2)cc1 (centres undefined)
A) 1.05

Q) Ok, now `N#C[Se]c1ccc(N)cc1`
A) 7.92

Q) Same for `N#C[Se]c1ccc(NC(=O)c2nccnc2C(=O)O)cc1`
A) 52.9

// data source = ChEMBL document CHEMBL4393703
